Provide the recorded thermal stability score for the entries that follow.
System: HeLa Kyoto;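 also: synchronized HeLa Kyoto cells, proteins quantified by TMT10plex mass spectrometry, three biological replicates, mitosis taken 0.5 h after nocodazole release, G1/S directly after double thymidine block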
Experiment Summary: thermal stability score vs G1/S (z-score of summed log2 fold changes over temperatures); higher = more thermally stable than in G1/S
Test Context: cell cycle stage: early G1 (4.5 h after nocodazole release)
Lab note: write the figure by itself, no unit.

Query: Read the entry MDLLFGRRKTPEELLRQNQRALNRAMRELDRERQKLETQEKKIIADIKKMAKQGQMDAVRIMAKDLVRTRRYVRKFVLMRANIQAVSLKIQTLKSNNSMAQAMKGVTKAMGTMNRQLKLPQIQKIMMEFERQAEIMDMKEEMMNDAIDDAMGDEEDEEESDAVVSQVLDELGLSLTDELSNLPSTGGSLSVAAGGKKAEAAASALADADADLEERLKNLRRD [CHMP2A] and write its reported thermal stability score.
Response: 0.326

Query: Read the entry MADGDSGSERGGGGGPCGFQPASRGGGEQETQELASKRLDIQNKRFYLDVKQNAKGRFLKIAEVGAGGSKSRLTLSMAVAAEFRDSLGDFIEHYAQLGPSSPEQLAAGAEEGGGPRRALKSEFLVRENRKYYLDLKENQRGRFLRIRQTVNRGGGGFGAGPGPGGLQSGQTIALPAQGLIEFRDALAKLIDDYGGEDDELAGGPGGGAGGPGGGLYGELPEGTSITVDSKRFFFDVGCNKYGVFLRVSEVKPSYRNAITVPFKAWGKFGGAFCRYADEMKEIQERQRDKLYERRGGGSGGGEESEGEEVDED [PURB] and write its reported thermal stability score.
Response: -1.12

Query: Read the entry MARPGMERWRDRLALVTGASGGIGAAVARALVQQGLKVVGCARTVGNIEELAAECKSAGYPGTLIPYRCDLSNEEDILSMFSAIRSQHSGVDICINNAGLARPDTLLSGSTSGWKDMFNVNVLALSICTREAYQSMKERNVDDGHIININSMSGHRVLPLSVTHFYSATKYAVTALTEGLRQELREAQTHIRATCISPGVVETQFAFKLHDKDPEKAAATYEQMKCLKPEDVAEAVIYVLSTPAHIQIGDIQMRPTEQVT [DHRS11] and write its reported thermal stability score.
Response: -0.426

Query: Read the entry MAATLGPLGSWQQWRRCLSARDGSRMLLLLLLLGSGQGPQQVGAGQTFEYLKREHSLSKPYQGVGTGSSSLWNLMGNAMVMTQYIRLTPDMQSKQGALWNRVPCFLRDWELQVHFKIHGQGKKNLHGDGLAIWYTKDRMQPGPVFGNMDKFVGLGVFVDTYPNEEKQQERVFPYISAMVNNGSLSYDHERDGRPTELGGCTAIVRNLHYDTFLVIRYVKRHLTIMMDIDGKHEWRDCIEVPGVRLPRGYYFGTSSITGDLSDNHDVISLKLFELTVERTPEEEKLHRDVFLPSVDNMKLPEMTAPLPPLSGLALFLIVFFSLVFSVFAIVIGIILYNKWQEQSRKRFY [LMAN2L] and write its reported thermal stability score.
Response: -0.409

Query: Read the entry MEGNRDEAEKCVEIAREALNAGNREKAQRFLQKAEKLYPLPSARALLEIIMKNGSTAGNSPHCRKPSGSGDQSKPNCTKDSTSGSGEGGKGYTKDQVDGVLSINKCKNYYEVLGVTKDAGDEDLKKAYRKLALKFHPDKNHAPGATDAFKKIGNAYAVLSNPEKRKQYDLTGNEEQACNHQNNGRFNFHRGCEADITPEDLFNIFFGGGFPSGSVHSFSNGRAGYSQQHQHRHSGHEREEERGDGGFSVFIQLMPIIVLILVSLLSQLMVSNPPYSLYPRSGTGQTIKMQTENLGVVYYVNKDFKNEYKGMLLQKVEKSVEEDYVTNIRNNCWKERQQKTDMQYAAKVYRDDRLRRKADALSMDNCKELERLTSLYKGG [DNAJB14] and write its reported thermal stability score.
Response: -1.51
